System: HeLa
Test: Primary qHTS to identify gynecologic anti-cancer compounds using libraries of approved drugs and bioactive compounds (AID 1345084); further: nearly all actives have a fitted effect of over 55% in size
Conditions: Gynecologic cancer cell panel viability, ATPlite luminescence, 48 h; series mostly up to 57.5 µM
Inconclusive results are not listed. The source made the active and inactive calls. The call rests on the fitted dose curve; in most records, active means well fitted cell-killing curve with a large enough effect; inconclusive means small, poorly fitted or top-dose-only effect, or effect the other way; inactive means flat fitted curve, though single readings scatter. Where a SMILES comes first, the peptide text is derived from it. [ ]: non-standard residue; d: D form. ξ: configuration not given here. ξLac(3-iPr) = CC(C)CC(O)C(=O)O; NMeV = CN[CH](C(=O)O)C(C)C; NMeA = CN[CH](C)C(=O)O; βAla = NCCC(=O)O
Labels: true (active), false (inactive)

| MOLECULE | LABEL_CLASS |
| --- | --- |
| CCc1nn(C)c(C(=O)NCc2ccc(Oc3ccc(C)cc3)cc2)c1Cl | false |
| COc1ccc2c3c4n(c2c1)[C@@H](C=C(C)C)OOC(C)(C)C[C@@H]4N1C(=O)[C@@H]2CCCN2C(=O)[C@]1(O)[C@H]3OCC=C(C)C | false |
| CO[C@H]1[C@H](O)[C@H](O[C@H]2CC[C@]3(C=O)C4CC[C@]5(C)[C@H](C6=CC(=O)OC6)CC[C@]5(O)C4CC[C@@H]3C2)O[C@@H](C)[C@@H]1O (some centres undefined) | true |
| CCC(C)C1NC(=O)C2CCCN2C(=O)C(CC(C)C)OC(=O)CCNC(=O)C(C)N(C)C(=O)C(C(C)C)N(C)C1=O (centres undefined) (cyclo([ξLac(3-iPr)]PI[NMeV][NMeA][βAla]); configuration not given here) | false |
| O=S(=O)(c1ccccc1F)N1CCOc2c(N3CCNCC3)cccc21 | false |
| O=C(NCCN1CCC2(CC1)C(=O)NCN2c1cccc(F)c1)c1ccc2ccccc2c1 | false |
| CCCCCn1cc(C(=O)Oc2cccc3cccnc23)c2ccccc21 | false |
| COc1ccc2[nH]c(-c3ccccc3)c(CCN(C)C)c2c1 | false |
| CC1=CC2/C=C(\C)CCCC(O)/C=C/C(=O)OC23C(=O)NC(CC(C)C)C3C1C (centres undefined) | false |
| N#CC(O[C@@H]1O[C@H](CO)[C@@H](O)[C@H](O)[C@H]1O)c1ccccc1 (some centres undefined) | false |
| CN(C)c1cc2c(cc1Sc1nc3c(N)nccc3n1CCNCC(C)(C)C)OCO2 | false |
| N#Cc1ccccc1-c1cc(-c2ccccn2)cn(-c2ccccc2)c1=O | false |
| C=C1C(=O)O[C@@H]2[C@H]3C(=C)[C@@H](O)C[C@H]3C(=C)C[C@@H](O)[C@@H]12 | false |
| OC(CNc1ccccc1)Cn1c2ccc(Br)cc2c2cc(Br)ccc21 (centres undefined) | false |
| C[C@H]1O[C@@H](O[C@H]2CC[C@]3(CO)C4CC[C@]5(C)[C@@H](C6=CC(=O)OC6)CC[C@]5(O)[C@@H]4CC[C@H]3C2)[C@H](O)[C@H](O)[C@@H]1O[C@@H]1O[C@H](CO)[C@@H](O)[C@H](O)[C@H]1O (some centres undefined) | true |
| CCOC(=O)c1ccc(-c2ccc(OC(=O)N(C)Cc3cccc(-c4ccncc4)c3)cc2)cc1 | false |
| O=C(N[C@H]1CN2CCC1CC2)c1cc2cccc(Cl)c2s1 | false |
| C[C@H]1O[C@@H](O[C@H]2CC[C@]3(C=O)C4CC[C@]5(C)[C@@H](C6=CC(=O)OC6)CC[C@]5(O)[C@@H]4CC[C@]3(O)C2)C[C@@H](O)[C@@H]1O (some centres undefined) | true |
| C[C@@H](CN1CCC(n2c(=O)[nH]c3cc(Br)ccc32)CC1)NC(=O)[C@@H]1C[C@H]1c1ccccc1 | false |
| CC(=O)OC[C@]12C[C@H](OC(=O)CC(C)C)C(C)=C[C@H]1O[C@@H]1[C@H](O)C[C@@]2(C)[C@]12CO2 | true |
| COC1C(O)C(C)OC(OC2C(CO)O[C@@H](O[C@@H]3CC4CCC5C(CC[C@]6(C)[C@@H](C7=CC(=O)OC7)CC[C@]56O)[C@@]4(C)[C@H](OC(C)=O)C3)C(O)C2O)C1O (some centres undefined) | true |
| Cc1ccc(-n2nccn2)c(C(=O)N2CCN(c3nc4cc(Cl)ccc4o3)CCC2C)c1 (centres undefined) | false |
| CCCCCn1cc(C(=O)Cc2ccccc2OC)c2ccccc21 | false |
| CCC(C)/C=C(C)/C=C/C1=CC2=C(Cl)C(=O)C(C)(OC(C)=O)C(=O)C2=CO1 (centres undefined) | false |

Source listed as PubChem BioAssay (NCATS).
